System: SW-620 colon
Assay: NCI tumour cell line growth inhibition, 48 h
# TGI per entry

The following compounds have reported results that may help.
O=C(O)/C(=C/c1c(O)ccc2ccccc12)c1csc(-c2nc(/C(=C\c3c(O)ccc4ccccc34)C(=O)O)cs2)n1: 59 µM
CC1(C)[C@@H](Cn2cnc3c(N)ncnc32)CC[C@@]1(C)CO: > 100 µM
CC1(C)OC(=O)C=C([O-])O1.CC1(C)OC(=O)C=C([O-])O1.O=S(=O)([O-])c1ccc([O-])c2ncccc12.O=S(=O)([O-])c1ccc([O-])c2ncccc12.[Ti+4]: > 100 µM
COc1cccc(-c2ccc3c4c2O[C@H]2c5[nH]c6ccccc6c5C[C@@]5(O)[C@@H](C3)N(CC3CC3)CC[C@]425)c1: 4.77 µM
O=S(=O)(NCC1CCC(CNc2ccc(Cl)cc2)CC1)c1ccc(-c2ccccc2)cc1 (centres undefined): > 50 µM
COc1cc(OC)c2c(O)c3c(cc2c1)CC(C)(C)CC3=O: > 100 µM
NNc1cccc(/C=C/c2ccccc2)cc1=O: > 100 µM
CCCCCCCCCCCCCCCCCCNc1ccn(C2OC(COP(=O)(O)OCC3CCC(n4cnc5c(=O)[nH]cnc54)O3)C(O)C2O)c(=O)n1 (centres undefined): > 100 µM

In the following, a different compound is considered.
Which TGI reading was recorded for the compound CCCCCCCCCCN(CCCCCCCCCC)CC(=O)c1ccc2cc(Br)c3ccccc3c2c1 ?
3.75 µM

====

Test system: OVCAR-5 ovarian
# GI50 per entry

The following compounds have reported results that may help.
C=C1C(=O)O[C@H]2[C@H]1CC/C(COC(=O)NCc1ccc(Cn3c(=O)sn(CCCCl)c3=O)cc1)=C\CC[C@@]1(C)O[C@@H]21: 2.64 µM
CCNC(=O)C#CC(=O)NCC: > 10 µM
Nc1nnc2cc(Cl)ccc2n1: > 100 µM
ClC(Cl)c1nc(-c2cccnc2)n2nc(-c3ccccc3)cc2n1: 1.9 µM
N#Cc1c(-c2ccccc2)cc(-c2ccc(Nc3nc(Nc4ccc(Cl)cc4)nc(Nc4ccc(Cl)cc4)n3)cc2)nc1N: 4.13 µM

Lab request: please report GI50 under test system OVCAR-5 ovarian for Clc1ccc2[nH]cc(-c3nc(-c4c[nH]c5ncccc45)cs3)c2c1
5.63 µM

Lab request: please report GI50 under test system OVCAR-5 ovarian for CC[C@@]1(O)C(=O)NCc2c1cc1n(c2=O)Cc2cc3c(N)cccc3nc2-1
11.8 µM

====

# TGI per entry
System: HS 578T breast
Experiment: NCI tumour cell line growth inhibition, 48 h
Value expressed in µM; do not type the unit.

CC1=C[C@H]2c3c(c(O)c(O)c4oc5ccccc5c(=O)c34)[C@H](c3cc(O)c(O)c4oc5ccccc5c(=O)c34)[C@H]2C(C)(C)C1: 9.89
N#Cc1cnc2cc(OC[C@@H](O)CO)c(NC(=O)CC3CSSC3)cc2c1Nc1ccc(OCc2cccc(F)c2)c(Cl)c1: 0.282
CC/C=C\C[C@H](O)C/C=C1/C(=O)C=C[C@@H]1C/C=C\CCCC(=O)N(C)C: 27.6
O=C1CSC(/C(=C\c2ccc(Cl)cc2)c2nc3ccccc3[nH]2)=N1: 53.2

In the following, a different compound is considered.
Which TGI reading was recorded for the compound ClC(Cl)(Cl)C1=N[C@H]2[C@H](Br)[C@@H]3O[C@@H](c4ccccc4)[C@H](c4ccccc4)O[C@@H]3[C@H]2O1 ?
63.7
